Sourced from ChEMBL document CHEMBL1157539

# Inhibition per record follows
test system: Plasmodium falciparum; assay: GSK_TCMDC: Inhibition of Plasmodium falciparum 3D7 in whole red blood cells, using parasite LDH activity as an index of growth. Test compounds present at 2uM; format: functional
Residues, ends and D or L forms follow the SMILES beside them. *: point of attachment. Boc = CC(C)(C)OC(=O)*
QUANTITY_NAME: Inhibition (%)

* CCCc1ccc(NC(=O)c2ccc(CN3CCCN(CC4CCCCC4)CC3)cc2)cc1.O=C(O)C(F)(F)F | 95
* CCN(CC)CCCN(C(=O)Nc1cc(F)cc(F)c1)c1nc(-c2ccc(F)cc2)cs1 | 82
* CCCc1ccc(N2C(N)=NC(N)=NC2(C)C)cc1.Cl | 94
* CNC(=O)c1cncc(/C=C/c2ccccc2S(N)(=O)=O)c1 | 100
* COc1ccc(N2CCN(c3nc(N)c4cc(OC)c(OC)cc4n3)CC2C)cc1.Cl (stereo unspecified) | 95
* CC(C)CNCc1cccc(-c2ccc(CNc3ccc(C(=O)c4ccccc4)cc3)cc2)c1.O=C(O)C(F)(F)F | 97
* COC(=O)CC[C@H](NC(=O)[C@H](C)NC(=O)OC(C)(C)C)C(=O)OC (Boc-Ala-Glu(OMe)-OMe) | 95
* O=C(CCCCCNC(=O)c1ccc(O)c(-c2ccc(Cl)c(Cl)c2)c1)NCCc1ccc(Cl)c(Cl)c1 | 97
* Cc1cccc2nc(-c3ccc(-c4cccc(NC(=O)C(C)CN5CCN(C)CC5)c4)s3)[nH]c12 (stereo unspecified) | 97
* Cl.N=C1N=C(N)NCN1OCc1ccc(Cl)c(Cl)c1 | 95
* Cc1[nH]cnc1CSCCNC(=N)NCCCCCCCCNC(=N)NCCSCc1nc[nH]c1C.Cl | 96

====

# Inhibition per record follows
tested on: Plasmodium falciparum; assay: GSK_TCMDC: Inhibition of Plasmodium falciparum 3D7 in whole red blood cells, using parasite LDH activity as an index of growth. Test compounds present at 2uM; type: functional
QUANTITY_NAME: Inhibition (%)

• CC(=O)Nc1ccc(C(=O)Nc2cccc(-c3ccc(-c4nc5ccccc5[nH]4)cc3)c2)cn1 = 100
• COc1ccc(NS(=O)(=O)c2ccc(C(=O)Nc3ccc(C(F)(F)F)cc3)cc2)cc1N1CCN(CC2CC2)CC1.O=C(O)C(F)(F)F = 92
• CN1CCN(c2ccnc3ccc(NC(=O)Cc4cccc(Cl)c4Cl)cc23)CC1 = 100
• Cc1ccc(Nc2nc(C)cc(NCc3ccc(-n4ccnc4)cc3)n2)cc1 = 100

====

# Inhibition per record follows
tested on: Plasmodium falciparum; assay: GSK_TCMDC: Inhibition of Plasmodium falciparum Dd2 in whole red blood cells, using parasite LDH activity as an index of growth. Test compounds present at 2uM; format: functional
QUANTITY_NAME: Inhibition (%)

- O=C(Nc1cccnc1)c1cc(-c2cccnc2)nc2ccc(Cl)cc12: 50
- Br.Cc1cccc2c(CON3C(N)=NC(N)=NC3(C)C)cccc12: 94
- COc1cc(Cc2cnc(N)nc2N)cc(OC)c1OC: 2
- Cl.Fc1cc(Cl)ccc1Nc1ccnc2cc(-c3ccc(CN4CCNCC4)o3)ccc12: 99
- Br.CC1(C)NC(N)=NC(=N)N1OCCCO: 0
- COc1ccc(-c2nc(NC(=O)CS(=O)(=O)c3ccc(F)cc3)sc2C)cc1: 99
- Cn1nc(-c2ccc(NC(=O)Nc3cc(C(F)(F)F)cc(C(F)(F)F)c3)c(F)c2)c2cnc(NCCN3CCOCC3)nc21.O=C(O)C(F)(F)F: 37
- CC(C)(C)c1ccc(CN2CCC(CNC(=O)c3cc(-c4ccccc4)nc4ccccc34)CC2)cc1: 36
- CS(=O)(=O)c1ccc(CNCc2ccc(-c3ccc(-c4nc5cc(C(F)(F)F)ccc5[nH]4)s3)cc2)cc1.O=C(O)C(F)(F)F: 98
- NCC1CCCN1Cc1cccc(-c2ccc(-c3nc4cc(C(F)(F)F)ccc4[nH]3)cc2)c1.O=C(O)C(F)(F)F (centres undefined): 95
- Cc1cccc2nc(-c3ccc(-c4ccc(NC(=O)NCc5ccccc5)cc4)s3)[nH]c12: 8
- CCc1c(CCNCCCC(C)CCNCCc2ccc(OC)c(OC)c2CC)ccc(OC)c1OC.Cl (centres undefined): 27
- O=C(NCc1ccc(F)cc1)c1cnc(N2CCN(c3ccncc3)CC2)c(Cl)c1.O=C(O)C(F)(F)F: 44
- FC(F)(F)c1ccc2[nH]c(-c3ccc(-c4cccc(CN5CCN(c6ccncc6)CC5)c4)cc3)nc2c1.O=C(O)C(F)(F)F: 99
- COc1cc2nc(N3CCC(NC(=O)c4cccc(N(C)C)c4)CC3)nc(N)c2cc1OC.O=C(O)/C=C\C(=O)O: 0
- COc1ccc(NS(=O)(=O)c2cc(NC(=O)Cn3ccccc3=O)ccc2N2CCCCC2)cc1: 83
- Cc1cccc(-c2nc(Nc3ccncc3)c3cc(N(C)C)ccc3n2)n1: 63
- CS(=O)(=O)CCNCc1nc(-c2ccc3c(Nc4ccc(F)c(O)c4)ccnc3c2)cs1: 84
- COc1cccc(NC(=O)Nc2cc(-c3ccc4[nH]ncc4c3)cc3c2CNC3=O)c1: 100
- Cc1ccc(Nc2ccnc(Nc3ccc4c(c3)CS(=O)(=O)C4)n2)cc1O.Cl: 76
- Nc1nccc2ccc(Oc3ccncc3)cc12: 81
- CCN(CC)CCN(Cc1ccc(-c2ccc(C(F)(F)F)cc2)cc1)C(=O)Cn1c(/C=C/c2ccco2)nc(=O)c2ccccc21.O=C(O)C(O)C(O)C(=O)O: 86
- CCOc1ccc(-c2nonc2NC(=O)c2ccccc2Cl)cc1OCC: 100
- COc1ccc(CCNCC(O)c2cccc(Br)c2)c(Cl)c1OC.Cl (centres undefined): 70
- Cc1nn(-c2ccccc2)c2c1C(c1ccc(C(C)C)cc1)N1C(=N2)N(Cc2ccccc2)c2ccccc21 (centres undefined): 37
- Cc1cccc(Nc2nc3nonc3nc2Nc2cccc(Cl)c2Cl)c1C: 95
- COc1ccc(C(=O)Nc2ccc3nc(N4CCCCC4)cc(C)c3c2)cc1OC: 7
- Cl.N#Cc1ccc2c(c1)CCN(CCC1CCC(NC(=O)/C=C/c3cccc4ccccc34)CC1)CC2 (centres undefined): 12
- COc1ccc(C(=O)NC(c2ccc(Cl)cc2Cl)c2cc(Cl)c3cccnc3c2O)cc1 (centres undefined): 48
- Cl.O=C(C=Cc1ccc(C(=O)Nc2ccc(C3=NCCN3)cc2)cc1)Nc1ccc(C2=NCCN2)cc1: 100
- COc1ccccc1CCNc1nc(C)cc(N[C@@H](Cc2ccccc2)C(=O)NCCOc2ccccc2)n1.O=C(O)C(F)(F)F: 76
- COc1cc2nc(Nc3ccc4c(ccn4Cc4ccccc4)c3)nc(Nc3ccc4c(ccn4Cc4ccccc4)c3)c2cc1OC: 80
- COCCNCc1ccc(-c2ccc(CNC3CCN(Cc4ccccc4)CC3)cc2)cc1.O=C(O)C(F)(F)F: 61
- COCCNCC(O)Cn1c2ccc(Cl)cc2c2cc(Cl)ccc21 (centres undefined): 74
